system: SW-620 colon; assay: NCI tumour cell line growth inhibition, 48 h
# GI50 per entry

Compound: Cc1cc(-c2ncc(-c3cccnc3)cc2/C=C/c2ccccc2)cnc1-c1cccnc1
GI50: 4410 nM

Compound: CNc1ccc(C(=O)CC(O)CCC(C)C2OC(=O)CC(O)CC(=O)CC(O)CC(O)CC(O)CC(O)CC3(O)CC(O)C(C(=O)NCCN(C)C)C(CC(OC4OC(C)C(O)C(NC(=O)CN5CCN(CCO)CC5)C4O)/C=C/C=C/C=C/C=C\C=C/C=C/C=C/C2C)O3)cc1 (centres undefined)
GI50: 728 nM

Compound: C=Cc1ccccc1 (tested in a mixture with another compound)
GI50: > 75 µg/mL

Compound: CCN(Cc1ccncc1)c1ccc(CO)c(Cl)c1
GI50: 3740 nM

Compound: CC(C)(C)c1ccc(C(=O)Nc2sc3c(c2C#N)CCC(=O)C3)cc1
GI50: 105 nM

Compound: O=C1/C(=C/c2ccc(Cl)cc2)COc2ccc(O)cc21
GI50: 1870 nM

Compound: COc1ccc(Nc2nccc(Nc3ccc4[nH]ncc4c3)n2)cc1
GI50: 3310 nM

Compound: CCCCCCCCc1ccc(OCCOCC[N+](C)(C)CC)cc1 (tested in a mixture with another compound)
GI50: 3970 nM

Compound: O=C(NCCCCNC(=O)OCc1ccc2c(Cl)cc(Cl)c(O)c2n1)OCc1ccc2c(Cl)cc(Cl)c(O)c2n1
GI50: 486 nM

----------
A collection of molecules and their measured TGI
tested on: NCI-H460 lung; experiment: NCI tumour cell line growth inhibition, 48 h

Molecule: NC(N)=NS(=O)(=O)c1ccc(Nc2c3ccccc3nc3c(C(=O)NNCCO)cccc23)cc1
TGI: 0.341 µM
--
Molecule: Cc1ccc(/C=N/Nc2ccccn2)s1
TGI: > 100 µM
--
Molecule: Cc1cc(OCC(O)CO)ccc1-c1ccccc1 (stereo not given)
TGI: > 100 µM
--
Molecule: C=CCNC(=O)N1CC(C)C(=O)Nc2ccccc21 (stereo not given)
TGI: > 100 µM
--
Molecule: CCOC(=O)NC(Nc1ncn(C(NC(=O)OCC)(C(F)(F)F)C(F)(F)F)n1)(C(F)(F)F)C(F)(F)F
TGI: > 100 µM

----------
system: HL-60(TB) leukemia; test: NCI tumour cell line growth inhibition, 48 h
Parameter measured: TGI

Compound: FC(F)(F)c1ccc(-c2cnc(Cl)nc2NC2CCCCCC2)cc1
Parameter measured: TGI
Assay value: > 100 µM
--
Compound: Cc1ccccc1-n1c(=O)sc2c(=O)n(-c3ccccc3)c(=S)[nH]c21
Parameter measured: TGI
Assay value: > 100 µM
--
Compound: O=P(O)(O)C(NCC(O)CN1CCOCC1)P(=O)(O)O (stereo not drawn)
Parameter measured: TGI
Assay value: > 100 µM

----------
test system: U251 CNS; experiment: NCI tumour cell line growth inhibition, 48 h
Parameter measured: TGI

Compound: Cc1ccc(NC(=O)OCC(COc2ccc(Cl)cc2)OC(=O)Nc2ccc(C)cc2)cc1 (stereo not drawn)
Parameter measured: TGI
Assay value: > 100 µM

Compound: N#Cc1nn(C(N)=O)c(N)c1C#N
Parameter measured: TGI
Assay value: > 100 µM

Compound: NS(=O)(=O)N(c1cc(C(F)(F)F)cc(C(F)(F)F)c1)C1CCN(Cc2ccc(F)cc2)CC1
Parameter measured: TGI
Assay value: 24.5 µM

Compound: O=C1NC(N/N=C/c2c[nH]c3ccccc23)=N/C1=C\c1cccs1
Parameter measured: TGI
Assay value: > 100 µM

Compound: COc1ccc(/C=C(\C#N)c2nc3ccccc3c(=O)[nH]2)cc1
Parameter measured: TGI
Assay value: 33.9 µM

Compound: CCCCc1ccc(-n2c(C)c(COC(=O)NC)c(COC(=O)NC)c2C)cc1
Parameter measured: TGI
Assay value: 17.4 µM

Compound: COc1cc(C=O)cc(/C=N/N=C/c2ccccc2O)c1O
Parameter measured: TGI
Assay value: > 100 µM

Compound: Cc1nnc(N)nc1C/C=C/C(Sc1ccc(Cl)cc1)c1ccccc1 (stereo not drawn)
Parameter measured: TGI
Assay value: 26.9 µM

Compound: Cc1cccc(NC(=O)/C=C/c2ccccc2)c1C
Parameter measured: TGI
Assay value: > 100 µM

Compound: COc1ccc(Nc2nccc(Nc3ccc4[nH]ncc4c3)n2)cc1
Parameter measured: TGI
Assay value: 13.6 µM

Compound: Cc1c2ccccc2cc2nc3ccccc3n12
Parameter measured: TGI
Assay value: > 10 µM

Compound: C/C(=N\NC(=O)Nc1ccccc1Cl)c1ccc(O)cc1
Parameter measured: TGI
Assay value: > 100 µM

Compound: c1ccc(CNCCN2CCNCC2)nc1
Parameter measured: TGI
Assay value: > 100 µM

Compound: CCOC(=O)c1nc2cc(C(F)(F)F)ccc2nc1Nc1cc(OC)c(OC)c(OC)c1
Parameter measured: TGI
Assay value: > 100 µM

Compound: CC(=O)OCC1OC(Sc2nc(-c3ccc(Cl)cc3)c(C#N)c(=O)n2C2OC(COC(C)=O)C(OC(C)=O)C(OC(C)=O)C2OC(C)=O)C(OC(C)=O)C(OC(C)=O)C1OC(C)=O (stereo not drawn)
Parameter measured: TGI
Assay value: > 100 µM

Compound: CC1CSC(=S)N1C(=O)N1C(=S)SCC1C (stereo not drawn)
Parameter measured: TGI
Assay value: 53.5 µM

Compound: COc1ccc2nc(NNC(=O)c3cnccn3)c3cccn3c2c1
Parameter measured: TGI
Assay value: 7.16 µM

Compound: Cn1cc(-c2nc3c(F)cc4[nH]ncc4c3c3c2CCCC3)c(C(F)(F)F)n1
Parameter measured: TGI
Assay value: 56.9 µM

Compound: O=[N+]([O-])O
Parameter measured: TGI
Assay value: > 100 µM

Compound: COc1cc(-c2nc3ccc(C)cc3[nH]2)ccc1OCC(=O)N=Nc1c(O)[nH]c2ccc(Cl)cc12
Parameter measured: TGI
Assay value: 1.66 µM

Compound: O=S1CCN(Cc2ccc(-c3ccc4ncnc(Nc5ccc(OCc6ccccc6)c(Cl)c5)c4c3)o2)CC1
Parameter measured: TGI
Assay value: > 25 µM

Compound: CC(=O)c1sc2c(c1OC(=O)c1ccc(Cl)cc1)c(=O)n(-c1ccccc1)c(=S)n2-c1ccccc1
Parameter measured: TGI
Assay value: 15 µM

Compound: COC1=CC(c2ccc[nH]2)=N/C1=C\c1[nH]c(C)c(C(=O)CCCCC(=O)NCc2ccccc2)c1C
Parameter measured: TGI
Assay value: 2.95 µM

Compound: COP(C)(=O)C1=CCN(C(=O)OCC[Si](C)(C)C)CC1 (stereo not drawn)
Parameter measured: TGI
Assay value: > 100 µM

Compound: CCN=C1Nc2ccccc2-n2c(nn3nc4ccccc4c23)N1CC
Parameter measured: TGI
Assay value: > 100 µM

Compound: CCCCNCC(O)c1cc2c(Cl)cc(Cl)cc2c2cc(C(F)(F)F)ccc12 (stereo not drawn)
Parameter measured: TGI
Assay value: 3.2 µM

Compound: COc1ccc2c(c1)CC[C@@H]1[C@@H]2CC[C@]2(C)C(=O)/C(=C/c3ccc(C#N)cc3)C[C@@H]12
Parameter measured: TGI
Assay value: > 100 µM

Compound: c1ccc(-c2cc(-c3cccs3)c(-c3cccs3)s2)cc1
Parameter measured: TGI
Assay value: > 100 µM
